For each entry below, report its EC50 CreLuc hGIPR 0.5% hP value.
- Target Or System: T1, human GIP receptor (human, UniProt P48546 22-466)
- T1 sequence (looked up): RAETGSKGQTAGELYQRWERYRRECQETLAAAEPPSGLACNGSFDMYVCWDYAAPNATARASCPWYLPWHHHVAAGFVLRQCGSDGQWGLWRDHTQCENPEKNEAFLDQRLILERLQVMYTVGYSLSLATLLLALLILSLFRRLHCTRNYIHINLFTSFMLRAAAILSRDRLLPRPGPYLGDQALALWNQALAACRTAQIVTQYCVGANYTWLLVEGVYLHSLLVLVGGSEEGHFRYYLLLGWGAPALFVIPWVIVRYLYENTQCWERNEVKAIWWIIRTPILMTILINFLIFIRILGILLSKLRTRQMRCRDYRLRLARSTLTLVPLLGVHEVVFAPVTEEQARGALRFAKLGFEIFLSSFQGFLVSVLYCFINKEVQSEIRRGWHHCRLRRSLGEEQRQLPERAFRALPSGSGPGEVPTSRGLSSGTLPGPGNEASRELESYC
- Protocol Description: cell-based or functional assay
Starred links: 1 amine or outer side, 2 acyl side, 3 side chain; linkers in the order of their positions; H or OH if unused. Non-standard residues stand in square brackets, D forms with d. Groups on a side chain read outwards from the residue. No end group written: not given here. *: point of attachment. C18 diacid = O=C(O)CCCCCCCCCCCCCCCCC(=O)*; γGlu = O=C(O)[C@H](CCC(=O)[*:2])N[*:1]; εLys = N[C@@H](CCCCN[*:1])C(=O)[*:2]; AEEA = NCCOCCOCC(=O)O; Aib = CC(C)(N)C(=O)O
Return type: number; implicit unit pM.

Tell me the measured EC50 CreLuc hGIPR 0.5% hP of Y[Aib]EGTFTSDYSI[Aib]LEKQAE[Aib]AFVQWLIK([AEEA-AEEA-γGlu-γGlu-γGlu-γGlu-C18 diacid])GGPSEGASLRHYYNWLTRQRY-NH2 [Compound 156] , please.
160

Reported EC50 CreLuc hGIPR 0.5% hP, binder YXEGTFTSDYSIXLEKQAQXAFVQWLIKGGPSEGVSLRHYYNWLTRQRY (Aib at 2, 13, 20; K28 side chain: C20DA-gGlu-gGlu-gGlu-gGlu-gGlu-gGlu-eLys; C-terminal NH2) [Compound 114] : ____
270

Could you share which EC50 CreLuc hGIPR 0.5% hP value was measured for Y[Aib]EGTFTSDYSI[Aib]LEKQAQ[Aib]EFVQWLIK([εLys-γGlu-γGlu-γGlu-γGlu-γGlu-C18 diacid])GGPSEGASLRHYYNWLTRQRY-NH2 [Compound 154] ?
400
